- Method: Rat pharmacokinetics
- Assay type: in vivo, rats
- Protocol conditions: male, Sprague-Dawley, plasma, iv, 3 mg/kg, IV 3 mg/kg free base, AUC0-24 hr
Endpoint: AUC(0-t) (µg·h/mL)

| Compound | Value units | Reported result |
| --- | --- | --- |
| CC(F)[C@H]1CNC[C@@H](O)[C@@H]1O (single isomer, unassigned) | µg·h/mL | 1.42 |

* * *

# key: entry, value: Emax
- Target system: GCase (Homo sapiens)
- Sequence (P04062 40-536): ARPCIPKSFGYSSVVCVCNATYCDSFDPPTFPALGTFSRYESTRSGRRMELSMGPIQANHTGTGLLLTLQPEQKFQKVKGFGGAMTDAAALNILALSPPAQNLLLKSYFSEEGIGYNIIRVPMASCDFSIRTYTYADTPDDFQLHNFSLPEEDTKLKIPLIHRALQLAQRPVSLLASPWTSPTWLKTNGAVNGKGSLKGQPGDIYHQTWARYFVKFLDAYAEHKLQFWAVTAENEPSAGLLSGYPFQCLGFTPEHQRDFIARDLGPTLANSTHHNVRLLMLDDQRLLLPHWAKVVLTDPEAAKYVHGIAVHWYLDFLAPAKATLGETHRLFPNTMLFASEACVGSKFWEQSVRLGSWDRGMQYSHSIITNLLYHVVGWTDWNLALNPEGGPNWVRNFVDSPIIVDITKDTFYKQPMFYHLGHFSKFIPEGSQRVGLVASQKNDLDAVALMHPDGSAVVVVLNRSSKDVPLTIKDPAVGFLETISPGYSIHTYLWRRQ
- Method: GCase activity enhancement (EC50, Emax) of Table 2B
- Assay type: cell-based
Structures can show the parent of a compound that is named as a salt.
Endpoint: Emax (%)

| Compound | Value units | Reported result |
| --- | --- | --- |
| O[C@@H]1[C@@H](Cc2ccccc2)CNC[C@H]1O | % | 98 |
| CC[C@@H](F)[C@H]1CNC[C@@H](O)[C@@H]1O.Cl [hydrochloride] | % | 84 |
| O[C@@H]1[C@@H]([C@H](O)c2ccccc2)CNC[C@H]1O | % | 72.1 |
| CC(C)(O)[C@H]1CNC[C@@H](O)[C@@H]1O | % | 109 |
| C[C@H](F)[C@H]1CNC[C@@H](O)[C@@H]1O [Compound 13, Hydrochloride] | % | 92.8 |
| CC(O)C1CNCC(O)C1O (single isomer, unassigned) | % | 99.3 |
| O[C@H]1[C@H](O)CNC[C@@H]1C(F)F [Compound 6, Hydrochloride] | % | 106 |
| C[C@@H](F)[C@H]1CNC[C@@H](O)[C@@H]1O [Compound 14, Hydrochloride] | % | 89.7 |

Just for reference, patent US10035766B2 is where these values come from.
